Target: CDK2 (Homo sapiens, UniProt P24941)
Construct: host or cells: HEK293
Experiment: CDK2 HIBIT PQ (protein quantification), degradation
Type: cell-based
Conditions: Max = Maximum
measurement-kind: CDK2 HIBIT PQ Max (%)

[
  {
    "compound": "CC(C)Oc1c(-c2cn[nH]c2)ncn2nc(Nc3ccc(S(=O)(=O)N(C)CCCN4CCN(c5cccc6c5n(C)c(=O)n6C5CCC(=O)NC5=O)CC4)cc3F)nc12 (racemic) [Compound 17]",
    "units-label": "%",
    "numeric-value": 91
  },
  {
    "compound": "CC(C)Oc1c(-c2cn[nH]c2)ncn2nc(Nc3ccc(S(=O)(=O)N4CCC[C@H](CN5CC[C@H](c6ccc7c(N8CCC(=O)NC8=O)nn(C)c7c6)CC5(C)C)C4)cc3F)nc12 (relative stereo) [Compound 97]",
    "units-label": "%",
    "numeric-value": 68
  },
  {
    "compound": "CC(C)Oc1c(-c2cn[nH]c2)ncn2nc(Nc3ccc(S(=O)(=O)c4cccc(C[C@H]5C[C@H](c6ccc7c(N8CCC(=O)NC8=O)nn(C)c7c6)C5)c4)cc3F)nc12 [Compound 89]",
    "units-label": "%",
    "numeric-value": 70
  },
  {
    "compound": "Cc1cc(S(=O)(=O)N(C)CCCN2CCC(c3ccc4c(c3)n(C)c(=O)n4C3CCC(=O)NC3=O)CC2)cc(F)c1Nc1nc2c(OC(C)C)c(-c3cn[nH]c3)ncn2n1 (racemic) [Compound 57]",
    "units-label": "%",
    "numeric-value": 90
  },
  {
    "compound": "CC(C)Oc1c(-c2cn[nH]c2)ncn2nc(NC3CCN(S(=O)(=O)N4CCC(CN5CCC(c6cccc7c6n(C)c(=O)n7C6CCC(=O)NC6=O)CC5)CC4)CC3)nc12 (racemic) [Compound 6]",
    "units-label": "%",
    "numeric-value": 80
  },
  {
    "compound": "CC(C)Oc1c(-c2cn[nH]c2)ncn2nc(N[C@H]3CCN(S(=O)(=O)c4cccc(CN5CCN(c6ccc7c(N8CCC(=O)NC8=O)nn(C)c7c6)CC5(C)C)c4)C[C@H]3C)nc12 [Compound 52]",
    "units-label": "%",
    "numeric-value": 98
  },
  {
    "compound": "CC(C)Oc1c(-c2cn[nH]c2)ncn2nc(Nc3ccc(S(=O)(=O)c4cccc(CC5CC(c6ccc7c(c6)n(C)c(=O)n7[C@H]6CCC(=O)NC6=O)C5)c4)cc3F)nc12 (mixture of isomers) [Compound 31]",
    "units-label": "%",
    "numeric-value": 81
  },
  {
    "compound": "CC(C)Oc1c(-c2cn[nH]c2)ncn2nc(Nc3ccc(S(=O)(=O)N4CCCC(CN5CCN(c6ccc7c(N8CCC(=O)NC8=O)nn(C)c7c6)C(C)C5)C4)cc3F)nc12 (stereo not shown) [Compound 91]",
    "units-label": "%",
    "numeric-value": 84
  },
  {
    "compound": "CC(C)Oc1c(-c2cn[nH]c2)ncn2nc(Nc3ccc(S(=O)(=O)N4CCC[C@H](CN5CC[C@@H](c6ccc7c(N8CCC(=O)NC8=O)nn(C)c7c6)CC5(C)C)C4)cc3F)nc12 (single isomer, unassigned) [Compound 96]",
    "units-label": "%",
    "numeric-value": 87
  },
  {
    "compound": "CC(C)Oc1c(-c2cn[nH]c2)ncn2nc(Nc3ccc(S(=O)(=O)c4cccc(N5CCCC6C5CN6c5ccc6c(c5)CN(C5CCC(=O)NC5=O)C6=O)c4)cc3F)nc12 (stereo not shown) [Compound 35]",
    "units-label": "%",
    "numeric-value": 79
  },
  {
    "compound": "CC(C)Oc1c(-c2cn[nH]c2)ncn2nc(Nc3ccc(S(=O)(=O)c4cccc(CC5CC(c6ccc(C(=O)NC7CCC(=O)NC7=O)cc6)C5)c4)cc3F)nc12 (racemic) [Compound 32]",
    "units-label": "%",
    "numeric-value": 89
  },
  {
    "compound": "CC(C)Oc1c(-c2cn[nH]c2)ncn2nc(Nc3ccc(S(=O)(=O)c4cccc(CN5C6CCC5CN(c5ccc7c(N8CCC(=O)NC8=O)nn(C)c7c5)C6)c4)cc3F)nc12 [Compound 46]",
    "units-label": "%",
    "numeric-value": 95
  },
  {
    "compound": "CC(C)Oc1c(-c2cn[nH]c2)ncn2nc(Nc3ccc(S(=O)(=O)c4cccc(C[C@H]5C[C@@H](c6ccc7c(c6)CN([C@@H]6CCC(=O)NC6=O)C7=O)C5)c4)cc3F)nc12 (stereo in doubt) [Compound 79]",
    "units-label": "%",
    "numeric-value": 96
  },
  {
    "compound": "CC(C)Oc1c(-c2cn[nH]c2)ncn2nc(Nc3ccc(S(=O)(=O)N4CCC[C@H](CN5CC[C@@H](c6ccc7c(N8CCC(=O)NC8=O)nn(C)c7c6)CC5(C)C)C4)cc3F)nc12 (single isomer, unassigned) [Compound 102]",
    "units-label": "%",
    "numeric-value": 90
  },
  {
    "compound": "CC(C)Oc1c(-c2cn[nH]c2)ncn2nc(Nc3ccc(S(=O)(=O)N4CCC(CN5CCC(c6ccc7c(c6)n(C)c(=O)n7C6CCC(=O)NC6=O)CC5)C4)cc3F)nc12 (stereo not shown) [Compound 71]",
    "units-label": "%",
    "numeric-value": 78
  },
  {
    "compound": "CC(C)Oc1c(-c2cn[nH]c2)ncn2nc(N[C@H]3CCN(S(=O)(=O)N(C)CCCN4CCC(c5cccc6c5n(C)c(=O)n6C5CCC(=O)NC5=O)CC4)C[C@H]3C)nc12 (stereo partly shown) [Compound 7]",
    "units-label": "%",
    "numeric-value": 92
  },
  {
    "compound": "CC(C)Oc1c(-c2cn[nH]c2)ncn2nc(Nc3ccc(S(=O)(=O)c4cccc(C[C@H]5C[C@H](c6ccc7c(c6)CN(C6CCC(=O)NC6=O)C7=O)C5)c4)cc3F)nc12 (stereo partly shown) [Compound 30]",
    "units-label": "%",
    "numeric-value": 96
  },
  {
    "compound": "CC(C)Oc1c(-c2cn[nH]c2)ncn2nc(Nc3ccc(S(=O)(=O)c4cccc(CC5CC(c6ccc7c(N8CCC(=O)NC8=O)nn(C)c7c6)C5)c4)cc3F)nc12 (stereo not shown) [Compound 33]",
    "units-label": "%",
    "numeric-value": 91
  },
  {
    "compound": "CC(C)Oc1c(-c2cn[nH]c2)ncn2nc(Nc3ccc(S(=O)(=O)c4cccc(N5CCN(CC6CCN(c7ccc8c(c7)CN(C7CCC(=O)NC7=O)C8=O)CC6)CC5)c4)cc3F)nc12 (racemic) [Compound 9]",
    "units-label": "%",
    "numeric-value": 89
  }
]
